# assayContext: in methanol, 321.25 K
Each entry below carries its recorded solubility (mole fraction).

>>> result("COc1cccc(Nc2ccccc2)c1")
0.0724

API: the following record is the query input.
Request: Tell me measured solubility (mole fraction) for CSc1cccc(Nc2ccccc2)c1 please.
Result: 0.0951

----------
# assayContext: in acetone, 287.25 K
experimentalEndpoint: solubility (mole fraction)
Format: numeric value only, no unit, no commentary.

Request: Tell me measured solubility (mole fraction) for COc1cccc(Nc2ccccc2)c1 please.
Result: 0.237

----------
# assayContext: in 1,2-dichloroethane, 319.75 K
experimentalEndpoint: solubility (mole fraction)
Format: numeric value only, no unit, no commentary.

Request: Tell me measured solubility (mole fraction) for CSc1cccc(Nc2ccccc2)c1 please.
Result: 0.515

----------
# assayContext: in methanol, 287.25 K
experimentalEndpoint: solubility (mole fraction)
Format: numeric value only, no unit, no commentary.

Request: Tell me measured solubility (mole fraction) for COc1cccc(Nc2ccccc2)c1 please.
Result: 0.0134

----------
# assayContext: in chloroform, 290.25 K
experimentalEndpoint: solubility (mole fraction)
Format: numeric value only, no unit, no commentary.

Request: Tell me measured solubility (mole fraction) for COc1cccc(Nc2ccccc2)c1 please.
Result: 0.181

----------
# assayContext: in methanol, 287.65 K
experimentalEndpoint: solubility (mole fraction)
Format: numeric value only, no unit, no commentary.

Request: Tell me measured solubility (mole fraction) for CSc1cccc(Nc2ccccc2)c1 please.
Result: 0.0115

----------
# assayContext: in ethyl acetate, 326.25 K
experimentalEndpoint: solubility (mole fraction)

Request: Tell me measured solubility (mole fraction) for COc1cccc(Nc2ccccc2)c1 please.
Result: 0.5

----------
# assayContext: in 1,2-dichloroethane, 333.75 K
experimentalEndpoint: solubility (mole fraction)
Format: numeric value only, no unit, no commentary.

>>> result("COc1cccc(Nc2ccccc2)c1")
0.545

Request: Tell me measured solubility (mole fraction) for CSc1cccc(Nc2ccccc2)c1 please.
Result: 0.654

----------
# assayContext: in methanol, 291.95 K
experimentalEndpoint: solubility (mole fraction)
Format: numeric value only, no unit, no commentary.

Request: Tell me measured solubility (mole fraction) for COc1cccc(Nc2ccccc2)c1 please.
Result: 0.0174

----------
# assayContext: in acetone, 321.75 K
experimentalEndpoint: solubility (mole fraction)
Format: numeric value only, no unit, no commentary.

>>> result("COc1cccc(Nc2ccccc2)c1")
0.513

API: the following record is the query input.
Request: Tell me measured solubility (mole fraction) for CSc1cccc(Nc2ccccc2)c1 please.
Result: 0.643

----------
# assayContext: in methanol, 301.15 K
experimentalEndpoint: solubility (mole fraction)
Format: numeric value only, no unit, no commentary.

Request: Tell me measured solubility (mole fraction) for COc1cccc(Nc2ccccc2)c1 please.
Result: 0.0268

----------
# assayContext: in methanol, 316.25 K
experimentalEndpoint: solubility (mole fraction)

Request: Tell me measured solubility (mole fraction) for COc1cccc(Nc2ccccc2)c1 please.
Result: 0.0579

----------
# assayContext: in methanol, 291.55 K
experimentalEndpoint: solubility (mole fraction)

Request: Tell me measured solubility (mole fraction) for CSc1cccc(Nc2ccccc2)c1 please.
Result: 0.016

----------
# assayContext: in 1,2-dichloroethane, 302.55 K
experimentalEndpoint: solubility (mole fraction)
Format: numeric value only, no unit, no commentary.

Request: Tell me measured solubility (mole fraction) for COc1cccc(Nc2ccccc2)c1 please.
Result: 0.258

----------
# assayContext: in ethyl acetate, 321.35 K
Each entry below carries its recorded solubility (mole fraction).
Format: numeric value only, no unit, no commentary.

>>> result("CSc1cccc(Nc2ccccc2)c1")
0.573

API: the following record is the query input.
Request: Tell me measured solubility (mole fraction) for COc1cccc(Nc2ccccc2)c1 please.
Result: 0.442

----------
# assayContext: in 1,2-dichloroethane, 308.65 K
experimentalEndpoint: solubility (mole fraction)
Format: numeric value only, no unit, no commentary.

Request: Tell me measured solubility (mole fraction) for COc1cccc(Nc2ccccc2)c1 please.
Result: 0.312

----------
# assayContext: in ethyl acetate, 300.18 K
experimentalEndpoint: solubility (mole fraction)

Request: Tell me measured solubility (mole fraction) for COc1cccc(Nc2ccccc2)c1 please.
Result: 0.283

----------
# assayContext: in chloroform, 313.25 K
experimentalEndpoint: solubility (mole fraction)

Request: Tell me measured solubility (mole fraction) for CSc1cccc(Nc2ccccc2)c1 please.
Result: 0.449

----------
# assayContext: in methanol, 311.95 K
experimentalEndpoint: solubility (mole fraction)
Format: numeric value only, no unit, no commentary.

Request: Tell me measured solubility (mole fraction) for CSc1cccc(Nc2ccccc2)c1 please.
Result: 0.0608

----------
# assayContext: in acetone, 313.05 K
experimentalEndpoint: solubility (mole fraction)
Format: numeric value only, no unit, no commentary.

Request: Tell me measured solubility (mole fraction) for COc1cccc(Nc2ccccc2)c1 please.
Result: 0.407

----------
Each entry below carries its recorded solubility (mole fraction).
# assayContext: in 1,2-dichloroethane, 287.65 K
Format: numeric value only, no unit, no commentary.

>>> result("CSc1cccc(Nc2ccccc2)c1")
0.189

API: the following record is the query input.
Request: Tell me measured solubility (mole fraction) for COc1cccc(Nc2ccccc2)c1 please.
Result: 0.149

----------
# assayContext: in acetone, 305.45 K
experimentalEndpoint: solubility (mole fraction)
Format: numeric value only, no unit, no commentary.

Request: Tell me measured solubility (mole fraction) for CSc1cccc(Nc2ccccc2)c1 please.
Result: 0.438

----------
# assayContext: in acetone, 315.15 K
experimentalEndpoint: solubility (mole fraction)
Format: numeric value only, no unit, no commentary.

Request: Tell me measured solubility (mole fraction) for CSc1cccc(Nc2ccccc2)c1 please.
Result: 0.551

----------
# assayContext: in 1,2-dichloroethane, 315.15 K
experimentalEndpoint: solubility (mole fraction)
Format: numeric value only, no unit, no commentary.

Request: Tell me measured solubility (mole fraction) for CSc1cccc(Nc2ccccc2)c1 please.
Result: 0.466

----------
# assayContext: in chloroform, 311.5 K
experimentalEndpoint: solubility (mole fraction)
Format: numeric value only, no unit, no commentary.

Request: Tell me measured solubility (mole fraction) for COc1cccc(Nc2ccccc2)c1 please.
Result: 0.35

----------
# assayContext: in ethyl acetate, 306.65 K
experimentalEndpoint: solubility (mole fraction)
Format: numeric value only, no unit, no commentary.

Request: Tell me measured solubility (mole fraction) for CSc1cccc(Nc2ccccc2)c1 please.
Result: 0.403

----------
# assayContext: in ethyl acetate, 297.25 K
experimentalEndpoint: solubility (mole fraction)
Format: numeric value only, no unit, no commentary.

Request: Tell me measured solubility (mole fraction) for CSc1cccc(Nc2ccccc2)c1 please.
Result: 0.311

----------
# assayContext: in methanol, 307.25 K
experimentalEndpoint: solubility (mole fraction)
Format: numeric value only, no unit, no commentary.

Request: Tell me measured solubility (mole fraction) for CSc1cccc(Nc2ccccc2)c1 please.
Result: 0.046

----------
# assayContext: in chloroform, 302 K
experimentalEndpoint: solubility (mole fraction)

Request: Tell me measured solubility (mole fraction) for CSc1cccc(Nc2ccccc2)c1 please.
Result: 0.338

----------
# assayContext: in ethyl acetate, 295.55 K
experimentalEndpoint: solubility (mole fraction)
Format: numeric value only, no unit, no commentary.

Request: Tell me measured solubility (mole fraction) for COc1cccc(Nc2ccccc2)c1 please.
Result: 0.254

----------
Each entry below carries its recorded solubility (mole fraction).
# assayContext: in chloroform, 323.13 K

>>> result("CSc1cccc(Nc2ccccc2)c1")
0.557

API: the following record is the query input.
Request: Tell me measured solubility (mole fraction) for COc1cccc(Nc2ccccc2)c1 please.
Result: 0.456

----------
# assayContext: in ethyl acetate, 306.35 K
experimentalEndpoint: solubility (mole fraction)
Format: numeric value only, no unit, no commentary.

Request: Tell me measured solubility (mole fraction) for COc1cccc(Nc2ccccc2)c1 please.
Result: 0.329

----------
# assayContext: in ethyl acetate, 292.95 K
experimentalEndpoint: solubility (mole fraction)
Format: numeric value only, no unit, no commentary.

Request: Tell me measured solubility (mole fraction) for CSc1cccc(Nc2ccccc2)c1 please.
Result: 0.281

----------
# assayContext: in ethyl acetate, 287.85 K
experimentalEndpoint: solubility (mole fraction)
Format: numeric value only, no unit, no commentary.

Request: Tell me measured solubility (mole fraction) for CSc1cccc(Nc2ccccc2)c1 please.
Result: 0.231

----------
# assayContext: in chloroform, 288.85 K
experimentalEndpoint: solubility (mole fraction)
Format: numeric value only, no unit, no commentary.

Request: Tell me measured solubility (mole fraction) for CSc1cccc(Nc2ccccc2)c1 please.
Result: 0.226

----------
# assayContext: in acetone, 298.95 K
experimentalEndpoint: solubility (mole fraction)
Format: numeric value only, no unit, no commentary.

Request: Tell me measured solubility (mole fraction) for COc1cccc(Nc2ccccc2)c1 please.
Result: 0.3

----------
# assayContext: in chloroform, 306.15 K
experimentalEndpoint: solubility (mole fraction)
Format: numeric value only, no unit, no commentary.

Request: Tell me measured solubility (mole fraction) for COc1cccc(Nc2ccccc2)c1 please.
Result: 0.308

FYI, the data here is from BigSolDB 2.1.
